Provide the recorded Bioavailability [%] (s.c.) for the entries that follow.
# Experiment: Pharmacokinetics in C57Bl6 mice
# Type: in vivo, mouse
# Condition parameters: 1 mg/kg peptide content, s.c. AUC vs i.v. AUC, 1 mg/kg
Numbers only, in %.

These solved cases illustrate the format of a correct answer.
>>> quantitative_result("Ac-FQSKpNVHVDGYFERL-Aib-AKLC(PEG)-NH2 [JBT2327] (FQSKPNVHVDGYFERLXAKLC; acetyl, D-Pro, Aib, Cys-PEG 21.0 kD, amide; MOD_RES (1)..(1): N-terminal acetylation; MOD_RES (5)..(5): D-Pro; MOD_RES (17)..(17): Xaa is 2-amino-isobutyric acid; MOD_RES (21)..(21): Cys-PEG; MOD_RES (21)..(21): C-terminal amidation) [PEG 21.0 kD, linear maleimide PEG]")
89.7
>>> quantitative_result("Ac-FQSKpNVHVDGYFERL-Aib-AKLC(PEG)-NH2 [JBT2326] (FQSKPNVHVDGYFERLXAKLC; acetyl, D-Pro, Aib, Cys-PEG 12.1 kD, amide; MOD_RES (1)..(1): N-terminal acetylation; MOD_RES (5)..(5): D-Pro; MOD_RES (17)..(17): Xaa is 2-amino-isobutyric acid; MOD_RES (21)..(21): Cys-PEG; MOD_RES (21)..(21): C-terminal amidation)")
76.0
>>> quantitative_result("Ac-FQSKpNVHVDGYFERL-Aib-AKLC(PEG)-NH2 [JBT2328] (FQSKPNVHVDGYFERLXAKLC; acetyl, D-Pro, Aib, Cys-PEG 29.1 kD, amide; MOD_RES (1)..(1): N-terminal acetylation; MOD_RES (5)..(5): D-Pro; MOD_RES (17)..(17): Xaa is 2-amino-isobutyric acid; MOD_RES (21)..(21): Cys-PEG; MOD_RES (21)..(21): C-terminal amidation) [PEG 29.1 kD, linear maleimide PEG]")
52.0

Pending substance:
Quick note, Bioavailability [%] (s.c.) for Ac-FQSKpNVHVDGYFERL-Aib-AKLC(PEG)-NH2 [JBT2325] (FQSKPNVHVDGYFERLXAKLC; acetyl, D-Pro, Aib, Cys-PEG 5.3 kD, amide; MOD_RES (1)..(1): N-terminal acetylation; MOD_RES (5)..(5): D-Pro; MOD_RES (17)..(17): Xaa is 2-amino-isobutyric acid; MOD_RES (21)..(21): Cys-PEG; MOD_RES (21)..(21): C-terminal amidation) [PEG 5.3 kD, linear maleimide PEG] landed at 58.2

----------
# System: Tissue Factor Pathway Inhibitor (TFPI)
# Experiment: IC50 ELISA | Mean IC50 [nM]
Reported metric: pIC50
Give bare numbers, as −log10 of the molar value.

Give pIC50 for all substances that follow.
1. Ac-FQSKpNVHVDGYFERL-Aib-AKLC(ME-120MA)-NH2 [JBT00002326]
2. Ac-FQSKpNVHVDGYFERL-Aib-AKLC(ME-50MA)-NH2 [JBT00002325]

1: 8.03; 2: 8.18

----------
# Tested on: TFPI
# Experiment: FXa Inhibition assay | EC50 (µM)
Reported metric: pEC50
Answers are plain numbers, as −log10 of the molar value.

What the record says about Ac-FQSKKAVFVFGYFERLRAKL-NH2 (SEQ ID NO: 288) [JBT0696] : pEC50 is 6.15
